Assay: Cytotoxicity in MT-4 cell culture
Assay type: cell-based
Conditions: human, MT-4 cells
Item-by-item account of CC50 at 5 days
Reply with just the number (in µM).

Some compounds with recorded CC50 at 5 days:
>>> print(df.to_string())
                                   compound  value_unit  reported_measurement
0  COc1cc(NC(C)CCCNC(=O)c2cc(Br)ccc2N)c2ncccc2c1 (centres unmarked)          µM                  56.4
1  COc1cc(NC(C)CCCNC(=O)c2ccccc2N)c2ncccc2c1 (centres unmarked)          µM                  78.2
2  Cc1nc(CN)cc2c1[nH]c1ccccc12 [HA, reference compound]          µM                  22.3

Let us examine a further case.
# get_value(readout='CC50 at 5 days', item= COc1cc(NC(C)CCCN)c2ncccc2c1 (centres unmarked) [PQ, primaquine, reference compound] )
17.9

---

Test system: HCT-116 colorectal carcinoma cells
Test: Antiproliferative screening, MTS cell viability assay
Type: cell-based
Details: Homo sapiens, HCT-116, 72 h, read-out: IC50 HCT-116
quantity_measured: pIC50
Value format note: pIC50 is -log10 of concentration (mol/L); just state the number.

Some compounds with recorded pIC50:
In [3]: df
Out[3]:
                                   compound  reported_measurement
0  Nc1cc(Cl)ccc1C(=O)NCCCCNc1ccnc2cc(Cl)ccc12                  5.05
1  Cc1nc(CNC(=O)c2cc(Br)ccc2NC(=O)OC(C)(C)C)cc2c1[nH]c1ccccc12                  4.48
2  CC(C)(C)OC(=O)Nc1ccc(Br)cc1C(=O)NCCCCNc1ccnc2cc(Cl)ccc12                  4.18
3  COc1cc(NC(C)CCCN)c2ncccc2c1 (centres unmarked) [PQ, primaquine, reference compound]                  4.27
4  O=C(NCCCCNc1ccnc2ccccc12)c1ccccc1NCc1ccccc1                  5.13

Let us examine a further case.
# get_value(readout='pIC50', item= Cc1nc(CNC(=O)c2ccccc2NCc2ccccc2)cc2c1[nH]c1ccccc12 )
4.46

---

Test system: C. violaceum ATCC31532 QS-reporter strain
Test: Anti-QS screening, violacein production
Assay type: cell-based
Conditions: Chromobacterium violaceum, ATCC31532, read-out: Anti-QS IC50
quantity_measured: pIC50
Value format note: pIC50 is -log10 of concentration (mol/L); just state the number.

# get_value(readout='pIC50', item= Nc1ccc(Br)cc1C(=O)NCCCCNc1ccnc2cc(Cl)ccc12 [Compound 13] )
5.43

---

Test system: human solid tumor and leukemia cell lines
Type: cell-based
Conditions: read-out: Antiproliferative IC50 across cancer cell lines
pIC50: −log10 of the molar value.
Item-by-item account of pIC50

# get_value(readout='pIC50', item= Nc1cc(Cl)ccc1C(=O)NCCCCNc1ccnc2cc(Cl)ccc12 )
5.00 to 5.70

# get_value(readout='pIC50', item= Nc1ccc(Br)cc1C(=O)NCCCCNc1ccnc2cc(Cl)ccc12 )
5.00 to 5.70

---

Assay: in vitro
Conditions: human
quantity_measured: selectivity ratio

# get_value(readout='selectivity ratio', item= CCN(CC)CCCC(C)Nc1ccnc2cc(Cl)ccc12 (stereo not shown) [CQ, chloroquine, reference compound] )
~30

---

Item-by-item account of pIC50
System: HL-60 acute myeloid leukemia cells
Test: Antiproliferative screening, IncuCyte cell growth
Format: cell-based
Conditions: Homo sapiens, HL-60, 72 h, read-out: IC50 HL-60
Value format note: pIC50 is -log10 of concentration (mol/L); just state the number.

Some compounds with recorded pIC50:
>>> print(df.to_string())
                                   compound                  measurement_target  reported_measurement
0  O=C(NCCCCNc1ccnc2ccccc12)c1ccccc1NCc1ccccc1  HL-60 acute myeloid leukemia cells                  4.83
1  Nc1cc(Cl)ccc1C(=O)NCCCCNc1ccnc2cc(Cl)ccc12  HL-60 acute myeloid leukemia cells                  5.01
2  COc1cc(NC(C)CCCN)c2ncccc2c1 (stereo not drawn) [PQ, primaquine, reference compound]  HL-60 acute myeloid leukemia cells                  4.55

# get_value(readout='pIC50', item= Nc1ccc(Br)cc1C(=O)NCCCCNc1ccnc2cc(Cl)ccc12 )
4.99

# get_value(readout='pIC50', item= Cc1nc(CNC(=O)c2ccccc2NCc2ccccc2)cc2c1[nH]c1ccccc12 )
4.18

---

System: Capan-1 pancreatic adenocarcinoma cells
Test: Antiproliferative screening, MTS cell viability assay
Format: cell-based
Details: Homo sapiens, CAPAN-1, 72 h, read-out: IC50 Capan-1
quantity_measured: IC50 (µM)
Reply with just the number (in µM).

In [3]: df
Out[3]:
                                   compound                       measurement_target  reported_measurement
0  COc1cc(NC(C)CCCN)c2ncccc2c1 (centres unmarked) [PQ, primaquine, reference compound]  Capan-1 pancreatic adenocarcinoma cells                  45.6
1  CC(C)(C)OC(=O)Nc1ccc(Br)cc1C(=O)NCCCCNc1ccnc2cc(Cl)ccc12  Capan-1 pancreatic adenocarcinoma cells                  40.6
2  Cc1nc(CNC(=O)c2cc(Br)ccc2N)cc2c1[nH]c1ccccc12  Capan-1 pancreatic adenocarcinoma cells                  38.9

What IC50 appears in the records for this compound with Capan-1 pancreatic adenocarcinoma cells? Cc1nc(CN)cc2c1[nH]c1ccccc12 [HA, reference compound]
68.6

What IC50 appears in the records for this compound with Capan-1 pancreatic adenocarcinoma cells? CC(C)(C)OC(=O)Nc1cc(Cl)ccc1C(=O)NCCCCNc1ccnc2cc(Cl)ccc12
20.4

What IC50 appears in the records for this compound with Capan-1 pancreatic adenocarcinoma cells? Cc1nc(CNC(=O)c2cc(Br)ccc2NC(=O)OC(C)(C)C)cc2c1[nH]c1ccccc12
5.8

What IC50 appears in the records for this compound with Capan-1 pancreatic adenocarcinoma cells? O=C(NCCCCNc1ccnc2cc(Cl)ccc12)c1ccccc1NCc1ccccc1
57.6

What IC50 appears in the records for this compound with Capan-1 pancreatic adenocarcinoma cells? Nc1ccccc1C(=O)NCCCCNc1ccnc2ccccc12
62.2

What IC50 appears in the records for this compound with Capan-1 pancreatic adenocarcinoma cells? Cc1nc(CNC(=O)c2ccc(Cl)cc2N)cc2c1[nH]c1ccccc12
56.3

What IC50 appears in the records for this compound with Capan-1 pancreatic adenocarcinoma cells? Nc1cc(Cl)ccc1C(=O)NCCCCNc1ccnc2cc(Cl)ccc12
6.3

---

Test system: HCT-116 colorectal carcinoma cells
Test: Antiproliferative screening, MTS cell viability assay
Format: cell-based
Settings: Homo sapiens, HCT-116, 72 h, read-out: IC50 HCT-116
quantity_measured: IC50

# get_value(readout='IC50', item= CC(C)(C)OC(=O)Nc1cc(Cl)ccc1C(=O)NCCCCNc1ccnc2cc(Cl)ccc12 )
32.4 µM

---

Tested on: HL-60 acute myeloid leukemia cells
Assay: Antiproliferative screening, IncuCyte cell growth
Type: cell-based
Details: Homo sapiens, HL-60, 72 h, read-out: IC50 HL-60
quantity_measured: IC50 (µM)
Reply with just the number (in µM).

Some molecules with recorded IC50:
>>> print(df.to_string())
                                   molecule  value_unit  reported_measurement
0  Cc1nc(CNC(=O)c2cc(Br)ccc2N)cc2c1[nH]c1ccccc12 [Compound 19]          µM                  66.3
1  Nc1ccccc1C(=O)NCCCCNc1ccnc2ccccc12 [Compound 11]          µM                  44.7

# get_value(readout='IC50', item= CC(C)(C)OC(=O)Nc1cc(Cl)ccc1C(=O)NCCCCNc1ccnc2cc(Cl)ccc12 [Compound 2] )
41.5

---

Tested on: HCT-116 colorectal carcinoma cells
Experiment: Antiproliferative screening, MTS cell viability assay
Type: cell-based
Conditions: Homo sapiens, HCT-116, 72 h, read-out: IC50 HCT-116
pIC50: −log10 of the molar value.
quantity_measured: pIC50

Some molecules with recorded pIC50:
>>> print(df.to_string())
                                   molecule  quantity_measured  reported_measurement
0  COc1cc(NC(C)CCCNC(=O)c2cc(Br)ccc2N)c2ncccc2c1 (centres unmarked)              pIC50                < 4.00
1  COc1cc(NC(C)CCCNC(=O)c2ccc(Cl)cc2NC(=O)OC(C)(C)C)c2ncccc2c1 (centres unmarked)              pIC50                < 4.00
2  COc1cc(NC(C)CCCNC(=O)c2ccccc2NCc2ccccc2)c2ncccc2c1 (centres unmarked)              pIC50                < 4.00
3  Cc1nc(CNC(=O)c2ccccc2N)cc2c1[nH]c1ccccc12              pIC50                  4.32

Let us examine a further case.
# get_value(readout='pIC50', item= COc1cc(NC(C)CCCNC(=O)c2ccc(Cl)cc2N)c2ncccc2c1 (centres unmarked) )
< 4.00
